- assayed target: UDP-3-O-acyl-N-acetylglucosamine deacetylase (Pseudomonas aeruginosa (strain ATCC 15692 / PAO1 / 1C / PRS 101 / LMG12228), UniProt P47205)
- protocol: Inhibition of Pseudomonas aeruginosa UDP-3-O-acyl-N-acetylglucosamine Deacetylase (LpxC) in vitro.
// log10 of IC50 lookup, one value per entry
Record value = log10 of IC50 given in µM.

[[record]]
compound = "Cc1ccc(C2=NC(C(=O)NO)CS2)cc1 (stereo unspecified)"
obs_value = 1.59

[[record]]
compound = "O=C(NO)C1COC(c2cccc(OC(F)(F)F)c2)=N1 (stereo unspecified)"
obs_value = 0.78

[[record]]
compound = "C=CCc1c(C)c(C2=NC(C(=O)NO)CO2)cc(F)c1OC (stereo unspecified)"
obs_value = 0.52


Measured log10 of IC50 of O=C(NO)C1COC(c2ccc(OCc3cccc([N+](=O)[O-])c3)cc2)=N1 (stereo unspecified) : 0.00

Measured log10 of IC50 of O=C(NO)C1COC(c2[nH]c3ccc(F)cc3c2Cl)=N1 (stereo unspecified) : -0.52

Measured log10 of IC50 of CCCCc1ccc(C2=NC(C(=O)NO)CO2)cc1 (stereo unspecified) : 0.86

----------
- assayed target: UDP-3-O-acyl-N-acetylglucosamine deacetylase (Pseudomonas aeruginosa (strain ATCC 15692 / PAO1 / 1C / PRS 101 / LMG12228))
- Sequence (P47205 whole entry): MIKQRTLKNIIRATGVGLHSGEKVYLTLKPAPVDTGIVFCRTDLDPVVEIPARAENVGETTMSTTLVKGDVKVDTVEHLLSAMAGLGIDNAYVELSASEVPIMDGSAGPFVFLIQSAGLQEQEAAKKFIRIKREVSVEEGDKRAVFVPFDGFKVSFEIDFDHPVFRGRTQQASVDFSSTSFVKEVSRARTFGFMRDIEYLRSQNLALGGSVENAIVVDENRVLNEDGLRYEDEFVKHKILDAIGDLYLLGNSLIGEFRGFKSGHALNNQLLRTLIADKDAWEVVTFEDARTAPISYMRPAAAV
- protocol: Inhibition of Pseudomonas aeruginosa UDP-3-O-acyl-N-acetylglucosamine Deacetylase (LpxC) in vitro.
// log10 of IC50 lookup, one value per entry
Record value = log10 of IC50 given in µM.

Please review the entries below; each comes with its answer.
[[record]]
molecule = "O=C(NO)C1COC(c2cc(F)cc(C(F)(F)F)c2)=N1 (configuration not stated)"
obs_value = 1.40

[[record]]
molecule = "O=C(NO)C1CCOC(c2ccc(F)c(C(F)(F)F)c2)=N1 (configuration not stated)"
obs_value = 1.33

[[record]]
molecule = "O=C(NO)C1COC(c2ccc(OCc3cccc(C(F)(F)F)c3)c(F)c2)=N1 (configuration not stated)"
obs_value = -0.08

[[record]]
molecule = "O=C(NC(CO)C(=O)NO)c1n[nH]c2ccccc12 (configuration not stated)"
obs_value = 1.11

[[record]]
molecule = "O=C(NO)C1COC(c2cccc(C(F)(F)F)c2)=N1 (configuration not stated)"
obs_value = 0.40

[[record]]
molecule = "CC(=O)c1ccc(C2=NC(C(=O)NO)CO2)cc1 (configuration not stated)"
obs_value = 1.26

[[record]]
molecule = "COc1ccc(C2=NC(C(=O)NO)CO2)cc1OC(F)(F)F (configuration not stated)"
obs_value = -0.80

[[record]]
molecule = "C=CCCOc1ccc(C2=NC(C(=O)NO)CO2)cc1OC(F)(F)F (configuration not stated)"
obs_value = -0.46

[[record]]
molecule = "C=CCOc1ccc(C(=O)NC(CO)C(=O)NO)cc1OC(F)(F)F (configuration not stated)"
obs_value = 0.88


Measured log10 of IC50 of COc1c(F)cc(C2=NC(C(=O)NO)CO2)cc1Br (configuration not stated) : 0.95
